For each entry below, report its inhibition at 10 µM value.
System: RABBIT PLATELETS
Test: Platelet release reaction (ATP release, luciferin/luciferase) induced by PAF
Format: cell-based, rabbits (male, albino, New Zealand)
Conditions: Oryctolagus cuniculus, read-out: % […] REACTION, compound 10 µM, 1-PAF 1.92 nM, pre-incubation 5 minutes, average of six experiments in triplicate
Give bare numbers, in %.

Please review the entries below; each comes with its answer.
compound	quantity_measured	endpoint_value
COC(=O)C1=C(C)NC(C)=C(C(=O)OCCSc2ccccc2)C1C (stereo not drawn) [Example 12]	inhibition at 10 µM	100
CC1=C(C(=O)OCCSc2ccccc2)C(C)C(C(=O)OC(C)C)=C(C)N1 (stereo not drawn) [Example 11]	inhibition at 10 µM	89
CCSCCOC(=O)C1=C(C)NC(C)=C(C(=O)OC)C1C (stereo not drawn) [Example 1]	inhibition at 10 µM	96
CCOC(=O)C1=C(C)NC(C)=C(C(=O)OCCSCC)C1C (stereo not drawn) [Example 4]	inhibition at 10 µM	89
CCOC(=O)C1=C(C)NC(C)=C(C(=O)OCCSc2ccccc2)C1C (stereo not drawn) [Example 9]	inhibition at 10 µM	100

Kindly review the next compound as well.
Query :: Dear colleague, I am looking for the recorded inhibition at 10 µM of the following compound: CCOC(=O)C1=C(C)NC(C)=C(C(=O)OCCSC)C1C (stereo not drawn) [Example 3]
Result :: 78
